# System: Human ovarian cancer cell line SKOV3
# EXPERIMENTAL PROTOCOL: Phototoxicity in SKOV3 cells after 660 nm laser or LED activation (AlamarBlue viability)
# Format: cell-based
# ASSAY CONDITIONS: Homo sapiens, SK-OV-3, light or radiation study; SKOV3 cells; 24 hours uptake; 660 nm LED panel, 50 mW/cm^2 for 5 mins (15 J/cm^2); values marked *; read-out: Phototoxicity μM (IC90), measured by LED
Counter-ions that a name gives are not always drawn.
PROPERTY NAME: IC90 (µM)

- CCC1=C(C)c2cc3[nH]c(cc4nc(c(C)c5cc(C)c(cc1n2)[nH]5)[C@@H](CCC[P+](c1ccccc1)(c1ccccc1)c1ccccc1)[C@@H]4C)c(C)c3CC: 0.0055
- CCC1=C(C)c2cc3[nH]c(cc4nc(c5c6[nH]c(cc1n2)c(C)c6C(=O)OC5)[C@@H](CCC(=O)O)[C@@H]4C)c(C)c3CC: 0.141
- CCC1=C(C)c2cc3[nH]c(cc4nc(c5c6[nH]c(cc1n2)c(C)c6C(=O)OC5)[C@@H](CCC(=O)N(C)CCCS[C@@H]1O[C@H](CO)[C@@H](O)[C@H](O)[C@H]1O)[C@@H]4C)c(C)c3CC: 0.229
- CCC1=C(C)c2cc3[nH]c(cc4nc(c(C)c5cc(C)c(cc1n2)[nH]5)[C@@H](CCC(=O)N[C@@H](CCCCN)C(=O)N(C)C)[C@@H]4C)c(C)c3CC [Compound 31, Hydrochloride]: 0.011

Source: patent US20250127898A1
